# MEASURED_TARGET: mTOR (Homo sapiens)
# Sequence (P42345 1382-2549 limits assumed): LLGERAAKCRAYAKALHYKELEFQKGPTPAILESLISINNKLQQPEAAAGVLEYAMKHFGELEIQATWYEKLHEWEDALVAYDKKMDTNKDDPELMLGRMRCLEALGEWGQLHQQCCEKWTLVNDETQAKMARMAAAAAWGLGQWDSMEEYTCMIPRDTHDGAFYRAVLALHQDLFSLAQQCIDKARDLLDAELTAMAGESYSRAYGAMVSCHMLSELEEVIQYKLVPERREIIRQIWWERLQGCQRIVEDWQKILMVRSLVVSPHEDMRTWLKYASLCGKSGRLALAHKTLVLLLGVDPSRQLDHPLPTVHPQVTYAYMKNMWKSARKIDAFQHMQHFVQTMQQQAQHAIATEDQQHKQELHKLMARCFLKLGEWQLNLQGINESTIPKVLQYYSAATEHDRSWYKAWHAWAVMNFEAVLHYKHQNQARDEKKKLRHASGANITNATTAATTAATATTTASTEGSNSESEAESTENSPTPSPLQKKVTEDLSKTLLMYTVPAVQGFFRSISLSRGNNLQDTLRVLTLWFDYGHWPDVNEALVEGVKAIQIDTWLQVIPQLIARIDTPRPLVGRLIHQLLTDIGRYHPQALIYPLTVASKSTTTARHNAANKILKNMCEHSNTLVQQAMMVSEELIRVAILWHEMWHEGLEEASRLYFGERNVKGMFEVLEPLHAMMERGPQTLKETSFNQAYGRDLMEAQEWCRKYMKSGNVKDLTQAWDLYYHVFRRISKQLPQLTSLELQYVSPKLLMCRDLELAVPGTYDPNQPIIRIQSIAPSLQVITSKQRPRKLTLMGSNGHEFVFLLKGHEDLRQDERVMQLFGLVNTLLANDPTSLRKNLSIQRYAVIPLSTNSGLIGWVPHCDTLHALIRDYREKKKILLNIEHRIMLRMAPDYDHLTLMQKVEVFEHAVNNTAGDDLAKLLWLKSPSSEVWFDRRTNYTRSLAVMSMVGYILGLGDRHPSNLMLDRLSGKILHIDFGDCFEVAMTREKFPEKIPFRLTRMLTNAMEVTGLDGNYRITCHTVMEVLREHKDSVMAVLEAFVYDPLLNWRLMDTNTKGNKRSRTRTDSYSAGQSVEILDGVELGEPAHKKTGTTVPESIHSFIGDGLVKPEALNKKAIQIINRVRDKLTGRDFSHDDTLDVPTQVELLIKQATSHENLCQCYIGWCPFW
# TEST_DESCRIPTION: mTOR assay (phosphorylation of 4eBP1, [γ33P]-ATP filter plate)
# Assay type: biochemical
# TEST_PARAMETERS: 10 μM ATP, 1 hour at room temperature
Each entry below carries its reported IC50.
PARAMETER: IC50

molecule="Oc1cccc(-c2nc(N3CCOCC3)nc3c2ncn3C2CCCCO2)c1 (centres unmarked)" result="< 1000 nM"
molecule="CCC(C#N)n1cnc2c(-c3cccc4[nH]ccc34)nc(N3CCOCC3)nc21 (centres unmarked)" result="1000 to 5000 nM"
molecule=N#CCn1cnc2c(-c3cccc4[nH]ccc34)nc(N3CCOCC3)nc21 result="1000 to 5000 nM"
molecule=c1cc(-c2nc(N3CCOCC3)nc3c2ncn3C2CCNCC2)c2cc[nH]c2c1 result="1000 to 5000 nM"
molecule="c1cc(-c2nc(N3CCOCC3)nc3c2ncn3C2CCOC2)c2cc[nH]c2c1 (centres unmarked)" result="< 1000 nM"
molecule=COc1ccc(Cn2cnc3c(-c4cccc(O)c4)nc(N4CCOCC4)nc32)cc1 result="< 1000 nM"
molecule=Oc1cccc(-c2nc(N3CCOCC3)nc3[nH]c(-c4cccs4)nc23)c1 result="> 5000 nM"
molecule="COCC(C)n1cnc2c(-c3cccc(O)c3)nc(N3CCOCC3)nc21 (centres unmarked)" result="< 1000 nM"
molecule=COc1cccc(Cn2cnc3c(-c4cccc(O)c4)nc(N4CCOCC4)nc32)c1 result="< 1000 nM"
molecule=COCCn1cnc2c(-c3cccc4[nH]ccc34)nc(N3CCOCC3)nc21 result="1000 to 5000 nM"
molecule=CS(=O)(=O)Nc1ccc(Cn2cnc3c(-c4cccc(O)c4)nc(N4CCOCC4)nc32)cc1 result="1000 to 5000 nM"
molecule="CCSc1nc2c(-c3cccc(O)c3)nc(N3CCOCC3)nc2n1C(C)CC (centres unmarked)" result="< 1000 nM"
molecule=CC(=O)Nc1ccc(Cn2cnc3c(-c4cccc(OC(C)=O)c4)nc(N4CCOCC4)nc32)cc1 result="> 5000 nM"
molecule=c1ccc(Cn2cnc3c(-c4ccc5cc[nH]c5c4)nc(N4CCOCC4)nc32)cc1 result="> 5000 nM"
molecule=c1ccc(Cn2cnc3c(-c4ccc5nc[nH]c5c4)nc(N4CCOCC4)nc32)cc1 result="1000 to 5000 nM"
molecule=CCOC(=O)CCn1cnc2c(-c3ccc4cc[nH]c4c3)nc(N3CCOCC3)nc21 result="1000 to 5000 nM"
molecule=CC(C)(C)OC(=O)N1CCC(n2cnc3c(-c4cccc(O)c4)nc(N4CCOCC4)nc32)CC1 result="< 1000 nM"
